- TARGET OF ASSAY: human CCR8 (human, UniProt P51685 1-355)
- Sequence (P51685 whole entry): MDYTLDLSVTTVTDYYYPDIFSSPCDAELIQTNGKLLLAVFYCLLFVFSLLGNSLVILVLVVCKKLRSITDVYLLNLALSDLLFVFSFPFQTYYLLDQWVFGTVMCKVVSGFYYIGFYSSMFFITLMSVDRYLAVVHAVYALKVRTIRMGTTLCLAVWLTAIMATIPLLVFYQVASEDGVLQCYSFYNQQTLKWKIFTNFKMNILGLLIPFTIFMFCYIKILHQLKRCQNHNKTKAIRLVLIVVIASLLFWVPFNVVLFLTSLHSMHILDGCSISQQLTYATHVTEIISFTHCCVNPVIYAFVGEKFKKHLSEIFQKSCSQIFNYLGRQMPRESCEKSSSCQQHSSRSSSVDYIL
- METHOD DESCRIPTION: cell-based or functional assay
OBSERVATION TYPE: ADCC EC50 (nM), NK92-CD16A effectors, HEK293-hCCR8 targets, LDH release
Give bare numbers, in nM.

// solved cases for ADCC EC50 (nM), NK92-CD16A effectors, HEK293-hCCR8 targets, LDH release follow
BINDER	VALUE REPORTED
109F6 anti-CCR8 chimeric antibody (antibody, V domains shown) VH: QVQLVESNGRLVQPKGSLKLSCAASGFTFNAYAMNWVRQAPGKGLEWVARIRSKSNNYATYYADSVKDRFTISRDDSQSMLYLQMNNLKTEDTAMYFCVRQKFGARGYYALDFWGQGASVTVSS VL: DIVLTQSPASLAVSLGQRATISCRASKSVSTSGYSYMHWYQQKPGQPPKLLIYLASNLESGVPARFSGSGSGTDFTLNIHPVEEEDAATYYCQHSRELPPTFGGGTKLEIK	0.07
113B3 anti-CCR8 chimeric antibody (antibody, V domains shown) VH: EVQLVESNGGLVQPKGSLKLSCAASGFTFNAYAMNWVRQAPGKGLEWVARIRSKSNNYATYYADSVKDRFTISRDDSQSMLYLQMNNLKTEDTAMYFCVRQKFGSRGYYALDFWGQGATVTVSS VL: QIVLTQSPAIMSASLGERVTMTCTASSSVSSSYLHWYQQKPGSSPKLWIYSTSNLASGVPARFSGSGSGTSYSLTISSMEAEDAATYYCHQYHRSPRTFGGGTRLEIK	0.04

// next item, ADCC EC50 (nM), NK92-CD16A effectors, HEK293-hCCR8 targets, LDH release requested
Task item: State the recorded ADCC EC50 (nM), NK92-CD16A effectors, HEK293-hCCR8 targets, LDH release for this entry: 144D2 anti-CCR8 chimeric antibody (antibody, V domains shown) VH: EVQLVESGGGLVQPKGSLKLSCAASGFTFNAFAMNWVRQAPGKGLEWVARIRSKSNNYATYYADSVIDRFTISRDDSQSMLYLQMNNLKTEDTAMYYCVRGKEAGAYYAMDYWGQGTSVTVSS VL: DIVMTQAAPSVPVTPGESVSISCRSSKSLLHSNGNTYLYWFLQRPGQSPQLLIYRMSNLASGVPDRFSGSGSGTAFTLRISRVEAEDVGVYYCMQHLEYPLTFGAGTKLEIK
Reply: 0.07
